# assay-protocol: PET hydrolysis product formed (TPA+MHET+BHET, UV-Vis) per mg enzyme (mmol/mg enzyme); higher = more PET depolymerisation activity; extreme values may be limits of the assay
# condition-description: PET substrate: aFilm; 70 °C; pH 8.5; 2 h
Give PET hydrolysis product formed for every item shown.
One number for each entry.

{"seq-text": "ANPYERGPNPTDALLEARSGPFSVSEENVSRLSASGFGGGTIYYPRENNTYGAVAISPGYTGTEASIAWLGERIASHGFVVITIDTITTLDQPDSRAEQLNAALNHMINRASSTVRSRIDSSRLAVMGHSMGGGGSLRLASQRPDLKAAIPLTPWHLNKNWSSVTVPTLIIGADLDTIAPVATHAKPFYNSLPSSISKAYLELDGATHFAPNIPNKIIGKYSVAWLKRFVDNDTRYTQFLCPGPRDGLFGEVEEYRSTCPF [TfCut2]", "PET hydrolysis product formed": 0.00376}

Alright, here's another sequence for you.
PET hydrolysis product formed for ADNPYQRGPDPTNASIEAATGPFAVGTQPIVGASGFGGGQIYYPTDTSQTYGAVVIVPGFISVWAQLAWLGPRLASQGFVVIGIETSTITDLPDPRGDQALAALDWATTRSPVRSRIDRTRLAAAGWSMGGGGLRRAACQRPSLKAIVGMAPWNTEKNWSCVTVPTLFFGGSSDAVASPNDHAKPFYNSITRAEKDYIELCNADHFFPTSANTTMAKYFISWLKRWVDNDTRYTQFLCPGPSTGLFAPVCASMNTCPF [CaPETaseM9] is 0

====

# assay-protocol: terephthalic acid (TPA) released, HPLC; higher = more TPA released; extreme values may be limits of the assay
# condition-description: PET substrate: aFilm; 70 °C; pH 9.5; 24 h
measurement-type: log10 of terephthalic acid (log10 of the value in mM)
Plainly stated, the numbers are log10 of terephthalic acid given in mM.

Before answering, review these 3 worked examples.
{"seq-text": "SNPYQRGPNPTRSALTATGPFSVATYTVSRLLVSGFGGGVIYYPTGTSLTFGGIAMSPGYTADASSLAWLGRRLASHGFVVLVINTNSRFDGPDSRARQLSAALNYLRTSSPSAVRARLDANRLAVAGHSMGGGGTLRIAEQNPSLKAAVPLTPWHPDKTFNTSVPVLIVGAQADTVAPVSQHAIPFYQNLPSTTPKVYVELCNASHIAPNSPNAAISVYTISWMKLWVDNDTRYRQFLCNVNDPALCDFRTNNRHCQ [LCC-ICCG I6M]", "log10 of terephthalic acid": 0.12}
{"seq-text": "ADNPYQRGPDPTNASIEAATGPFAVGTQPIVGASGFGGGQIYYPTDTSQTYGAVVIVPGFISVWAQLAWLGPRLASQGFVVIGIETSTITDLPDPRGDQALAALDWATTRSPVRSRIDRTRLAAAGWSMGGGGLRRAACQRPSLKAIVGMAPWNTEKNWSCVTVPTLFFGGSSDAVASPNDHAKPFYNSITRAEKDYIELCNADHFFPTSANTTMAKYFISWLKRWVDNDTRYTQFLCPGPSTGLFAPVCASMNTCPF [CaPETaseM9]", "log10 of terephthalic acid": -2.05}
{"seq-text": "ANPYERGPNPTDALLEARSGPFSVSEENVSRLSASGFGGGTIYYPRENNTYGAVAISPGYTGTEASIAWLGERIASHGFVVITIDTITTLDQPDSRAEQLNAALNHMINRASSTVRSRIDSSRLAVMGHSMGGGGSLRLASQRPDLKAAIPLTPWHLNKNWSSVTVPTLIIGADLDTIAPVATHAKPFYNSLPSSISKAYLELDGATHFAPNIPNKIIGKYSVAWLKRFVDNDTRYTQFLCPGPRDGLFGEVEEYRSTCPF [TfCut2]", "log10 of terephthalic acid": -1.46}

Value sought for every listed sequence: log10 of terephthalic acid.
1. SNPYQRGPNPTRSALTADGPFSVRTYTISRLSVSGFGGGVIYYPTGTSLTFGGIAMSPGYTADASSLAWLGRRLASHGFVVLVINTNSRFDGPDSRASQLSAALNYLRTSSPSAVRARLDANRLAVAGHSMGGGGTLRIAEQNPSLKAAVPLTPWHTDKTFNTSVPVLIVGAEADTVAPVSQHAIPFYQNLPSTTPKVYVELCNASHIAPNSPNAAISVYTISWMKLWVDNDTRYRQFLCNVNDPALCDFRTNNRHCQ [LCC-ICCG RIP]
2. SNPYQRGPNPTRSALTADGPFSVATYTVSRLSVSGFGGGVIYYPTGTSLTFGGIAMSPGYTADASSLAWLGRRLASHGFVVLVINTNSRFDGPDSRASQLSAALNYLRTSSPSAVRARLDANRLAVAGHSMGGGGTLRIAEQNPSLKAAVPLTPWHTDKTFNTSVPVLIVGAEADTVAPVSQYAIPFYQNLPSTTPKVYVELCNASHIAPNSDNAAISVYTISWMKLWVDNDTRYRQFLCNVNDPALCDFRTNNRHCQ [LCC-A2]
3. SNPYQRGPNPTRSALTADGPFSVATYTVSRLSVSGFGGGVIYYPTGTSLTFGGIAMSPGYTADASSLAWLGRRLASHGFVVLVINTNSRFDGPDSRASQLSAALNYLRTSSPSAVRARLDANRLAVAGHSMGGGGTLRIAEQNPSLKAAVPLTPWHTDKTFNTSVPVLIVGAEADTVAPVSQHAIPFYQNLPSTTPKVYVELCNASHIAPNSNNAAISVYTISWMKLWVDNDTRYRQFLCNVNDPALCDFRTNNRHCQ [LCC-ICCG]

1: 0.22; 2: 0.46; 3: 0.24

====

# assay-protocol: PET hydrolysis product formed (TPA+MHET+BHET, UV-Vis) per mg enzyme (mmol/mg enzyme); higher = more PET depolymerisation activity; extreme values may be limits of the assay
# condition-description: PET substrate: cryPow; 60 °C; pH 4.5; 24 h
measurement-type: PET hydrolysis product formed
Answers are plain numbers.

Record summary for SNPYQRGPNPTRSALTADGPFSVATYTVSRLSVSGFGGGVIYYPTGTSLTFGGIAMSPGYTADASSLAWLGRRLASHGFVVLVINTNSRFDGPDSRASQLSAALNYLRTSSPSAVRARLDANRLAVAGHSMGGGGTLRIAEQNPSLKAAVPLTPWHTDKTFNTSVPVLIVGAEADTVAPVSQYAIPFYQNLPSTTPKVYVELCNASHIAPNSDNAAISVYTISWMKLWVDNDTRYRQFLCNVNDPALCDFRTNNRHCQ [LCC-A2] : reported PET hydrolysis product formed = 0.0357

====

Assign terephthalic acid to each entry below.
# assay-protocol: terephthalic acid (TPA) released, HPLC; higher = more TPA released; extreme values may be limits of the assay
# condition-description: PET substrate: aFilm; 60 °C; pH 4.5; 24 h
Numbers only, in mM.

Here are 2 sequences together with their reported answers.
{"seq-text": "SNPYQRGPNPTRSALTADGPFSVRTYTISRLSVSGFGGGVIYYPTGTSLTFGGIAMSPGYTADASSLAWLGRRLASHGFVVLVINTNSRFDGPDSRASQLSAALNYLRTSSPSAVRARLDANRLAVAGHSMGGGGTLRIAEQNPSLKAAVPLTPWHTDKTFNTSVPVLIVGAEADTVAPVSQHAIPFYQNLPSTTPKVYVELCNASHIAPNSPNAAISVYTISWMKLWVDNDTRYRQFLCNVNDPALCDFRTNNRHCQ [LCC-ICCG RIP]", "units-text": "mM", "numeric-value": 0.0858}
{"seq-text": "SNPYQRGPNPTRSALTADGPFSVATYTVSRLSVSGFGGGVIYYPTGTSLTFGGIAMSPGYTADASSLAWLGRRLASHGFVVLVINTNSRFDGPDSRASQLSAALNYLRTSDPSAVRARLDANRLAVAGHSMGGGATLRIAEQNPSLKAAIPLTPWHTQKTFNTSVPVLIVGAEADTVAPVSQHAIPFYQNLPSTTPKVYVELCNASHIAPNSNNAAISVYTISWMKLWVDNDTRYRQFLCNVNDPALCDFRTNNRHCQ [LCC-ICCG DAQI]", "units-text": "mM", "numeric-value": 0.0488}

Consider now this further sequence.
# terephthalic acid (sequence: QTNPYARGPDPTAASLEASAGPFTVRSFTVSRPSGYGAGTVYYPTNAGGTVGAIAIVPGYTARQSSIKWWGPRLASHGFVVITIDTNSTLDQPESRSSQQMAALEQVASLNGTSSSPIYGKVDTARMGVMGWSMGGGGSLISACNNPSLKAAVVQAPWHSSTNFSCVTVPTLIFACENDSIAPVNSSALPIYDSMSENAKQFLEICGGSHSCANTGNSDQALIGKKGVAWMKRFMDNDTRYSTFACENPNSTRVCDFRTANCS [Z1-PETase] ) is 0

====

I'd be grateful if you could share measured terephthalic acid for these entries.
# assay-protocol: terephthalic acid (TPA) released, HPLC; higher = more TPA released; extreme values may be limits of the assay
# condition-description: PET substrate: aFilm; 60 °C; pH 4.5; 24 h
Numbers only, in mM.

{"seq-text": "QTNPYARGPNPTAASLEASAGPFTVRSFTVARPVGYGAGTVYYPTNAGGTVGAIAIVPGYTATQSSINWWGPRLASHGFVVITIDTNSTLDKPESRSSQQMAALRQVASLNGTSSSPIYGKVDTARGGVMGWSMGGGGSLISAANNPSLKAAAVMAPWHSSTNFSSVTVPTLIFACENDRIAPVKEYALPIYDSMSLNAKQFLEICGGSHSCACSGNSNQALIGMKGVAWMKRFMDNDTRYSQFACENPNSTAVCDFRTANCS [HotPETase]", "units-text": "mM", "terephthalic acid": 0}

// below: terephthalic acid requested for another sequence
Reported terephthalic acid ( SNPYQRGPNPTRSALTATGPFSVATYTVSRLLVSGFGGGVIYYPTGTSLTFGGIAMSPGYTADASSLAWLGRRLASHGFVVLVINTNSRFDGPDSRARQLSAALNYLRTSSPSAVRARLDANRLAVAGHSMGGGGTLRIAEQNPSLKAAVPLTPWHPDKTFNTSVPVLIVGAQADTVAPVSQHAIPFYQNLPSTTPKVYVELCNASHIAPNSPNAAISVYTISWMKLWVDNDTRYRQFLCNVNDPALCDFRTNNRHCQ [LCC-ICCG I6M] ) = 0.104
